Assay: binders from COS7 lysate, DM2A8 probe, primary screen, torsin A project, cell lysate, small-molecule microarray, fluorescence 635/667 (AID 1065)
Conditions: higher = more signal, COS7 lysate expressing mutant human TOR1A
readout-type: composite z-score
# print the numeric value only

{"molecule": "CS(=O)(=O)CCOC(=O)C1=CC(c2ccc(CO)cc2)=CC(C2CC2)N(Cc2cc3c(cc2Br)OCO3)C=C1C(=O)OCCS(C)(=O)=O (stereo not drawn)", "composite z-score": 0.28}
{"molecule": "C=CCNC(=O)[C@@H]1[C@H]2C(=O)O[C@H](c3ccccc3)[C@H](c3ccccc3)N2[C@H](c2ccccc2OCCO)[C@@]12C(=O)Nc1ccc(C#CC3=CCCCC3)cc12", "composite z-score": 0.571}

Lab book: composite z-score of `O=C1c2ccccc2[C@@]2(Cc3ccccc3N(Cc3ccccc3)C2=O)[C@H](c2ccc(CO)cc2)N1C1CCCCC1` noted as -0.832
